For each of the molecules below, state its IC50.
biological target: rSmTAChE (Schistosoma mansoni); type: biochemical; details: read-out: IC50 (µM) rSmTAChE
Sequence (A0A3Q0KMM5 27-661 limits assumed): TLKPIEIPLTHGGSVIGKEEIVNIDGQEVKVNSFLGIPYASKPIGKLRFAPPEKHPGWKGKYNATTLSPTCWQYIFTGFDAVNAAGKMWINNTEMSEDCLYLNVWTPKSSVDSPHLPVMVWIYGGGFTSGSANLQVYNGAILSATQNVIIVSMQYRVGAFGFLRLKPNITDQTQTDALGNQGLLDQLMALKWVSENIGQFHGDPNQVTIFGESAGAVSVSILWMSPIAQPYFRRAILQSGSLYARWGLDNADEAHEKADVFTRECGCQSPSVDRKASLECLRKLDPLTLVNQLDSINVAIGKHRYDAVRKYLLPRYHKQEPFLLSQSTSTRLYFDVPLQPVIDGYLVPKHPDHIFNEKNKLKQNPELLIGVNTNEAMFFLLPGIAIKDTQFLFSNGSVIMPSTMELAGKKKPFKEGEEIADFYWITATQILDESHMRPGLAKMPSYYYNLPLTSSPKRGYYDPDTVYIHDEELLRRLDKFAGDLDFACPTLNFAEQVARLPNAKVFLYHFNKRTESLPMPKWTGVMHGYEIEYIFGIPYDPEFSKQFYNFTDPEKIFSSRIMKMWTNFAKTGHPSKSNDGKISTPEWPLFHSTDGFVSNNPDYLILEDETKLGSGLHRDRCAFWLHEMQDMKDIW
State the answer as a number, implicitly in µM.

Please indicate IC50 recorded for CCCCCCCC/C=C\CCCCCCCC(=O)NCCc1ccc(O)c(O)c1 [OLDA, reference compound]
36.1

Please indicate IC50 recorded for Cc1cnc(Nc2ccc(N3CCN(C)CC3)cc2)nc1Nc1cccc(S(=O)(=O)NC(C)(C)C)c1 [TG-101209, reference compound]
6.13

Please indicate IC50 recorded for O=C(O)CNC(=O)c1c(O)c2ccccc2n(Cc2ccccc2)c1=O [IOX2, reference compound]
16.7

Please indicate IC50 recorded for N.N.[Cl][Pt][Cl] [Cisplatin, reference compound]
3.81

Please indicate IC50 recorded for COc1ccc(/C=C/CCCCOc2ccc(C(=O)c3cccc(C(=O)O)c3)cc2CCC(=O)O)cc1 [LY223982, reference compound]
15.2

Please indicate IC50 recorded for CC(C)c1onc(-c2c(Cl)cccc2Cl)c1COc1ccc(/C=C/c2cccc(C(=O)O)c2)c(Cl)c1 [GW-4064, reference compound]
1.47

Please indicate IC50 recorded for Nc1nc(NCC2CCC(CNS(=O)(=O)c3cccc4ccccc34)CC2)nc2ccccc12 (centres unmarked) [CGP-71683, reference compound]
2.21
